This collection of values is drawn from PubChem BioAssay.

tested on: Lefty1; test: Lefty1 binders on small-molecule microarrays, primary screen, biochemical, small-molecule microarray, 635/667 nm fluorescence (AID 1139); conditions: small-molecule microarray binding, fluorescence 635/667; higher = more signal
I'd be grateful if you could share measured composite z-score for these entries.

# count of solved cases: 6
molecule: CC(C)c1ccc(NN2C(C(O)c3c(F)cccc3Cl)C=CC3C(=O)N(c4ccccc4)C(=O)C32)cc1 (configuration not stated)
assayed.target: Lefty1
composite z-score: -0.0553
--
molecule: COC(=O)[C@@]1(Cc2ccc(F)cc2)[C@H]2c3cc(C(=O)N(C)C)n(CCc4ccccn4)c3C[C@H]2CN1C(=O)c1ccccc1
assayed.target: Lefty1
composite z-score: 0.221
--
molecule: CC(C)(C)OC(=O)CC[C@]1(C(=O)N2CCCCC2)N=C(c2ccc(OCCCO)cc2)O[C@H]1c1ccccc1N=[N+]=[N-]
assayed.target: Lefty1
composite z-score: 0.513
--
molecule: CC(=O)NCCCC[C@@H]1NC(=O)[C@H]2C[C@@H](C(=O)NCCCCCC[N+](C)(C)C)[C@@H](c3cccc(OCCO)c3)N2C1=O
assayed.target: Lefty1
composite z-score: 1.39
--
molecule: CN(C)CCCCNC(=O)[C@H]1C[C@H]2C(=O)N[C@@H](Cc3ccccc3)C(=O)N2[C@H]1c1ccc(O)cc1
assayed.target: Lefty1
composite z-score: 1.31
--
molecule: COCCOC(=O)N1C(=O)[C@@]2(c3cc(C#CCC(C(=O)OC)C(=O)OC)ccc31)[C@H](c1ccccc1OCCO)N1[C@H](c3ccccc3)[C@H](c3ccccc3)OC(=O)[C@H]1[C@@H]2C(=O)N1CCc2cc(OC)c(OC)cc2C1
assayed.target: Lefty1
composite z-score: 1.47

composite z-score on Lefty1 for C=CC[C@@]1(C(=O)O)N=C(c2ccc(OCCCO)cc2)O[C@@H]1c1ccccc1N=[N+]=[N-] is -0.504

* * *

molecular target: E3 ubiquitin-protein ligase XIAP (Homo sapiens); test: XIAP binders, primary screen, biophysical, small-molecule microarray, fluorescence 635 nm (AID 1181); details: small-molecule microarray binding, higher = more signal;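 also: score merges 667 nm emission and signal to noise over triplicate slides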
Exercise: state measured composite z-score for each of the compounds provided.
Numbers only.

Worked examples, 3 compounds total:
compound: CC(C)(C)OC(=O)CC[C@@]1(C(=O)NCCN2CCOCC2)N=C(c2ccc(OCCCO)cc2)O[C@@H]1c1ccccc1
result: 0.228

compound: CC(C)(C)OC(=O)CC[C@@]1(C(=O)O)N=C(c2ccc(OCCCO)cc2)O[C@@H]1c1ccccc1N=[N+]=[N-]
result: -0.187

compound: COC(=O)C[C@H]1O[C@]2(C(=O)N(Cc3ccccc3)c3ccc(NC(C)=O)cc32)[C@@H](C)[C@@H]1[Si](C)(C)c1ccc(OC)cc1
result: -0.227

I need composite z-score for every entry listed below, if you could help.
1. Cc1ccc([C@H]2[C@H](C(=O)O)[C@H](Sc3ccccc3)[C@@H](C(C)C)N2S(=O)(=O)c2ccc(C)cc2)cc1
2. N#Cc1ccc(NN2C(C(O)c3ccc([N+](=O)[O-])cc3)C=CC3C(=O)N(c4ccccc4)C(=O)C32)cc1 (configuration not stated)
3. COc1ccc(C(O)C2C=CC3C(=O)N(c4ccccc4)C(=O)C3N2Nc2ccc([N+](=O)[O-])cc2)cc1OCc1ccccc1 (configuration not stated)
4. CCN(CC)c1ccc(N2CC=CC34O[C@@H]5/C=C\CCCOC(=O)C5[C@H]3C(=O)N(C(CO)C(C)C)[C@@H]4C2=O)cc1 (some centres not stated)

0.603
-0.0391
-0.0655
0.336
